// reported LD50 at 24 h for each item listed
Test name: in vivo
Condition description: mouse, ip, After 1 day, mice, intraperitoneal, in rape-oil

* COc1cc(C)c(C=CC(C)=CC=CC(C)=CC(=O)O)c(C)c1C | > 4000 mg/kg

q: Note LD50 at 24 h for the compound shown: CCOC(=O)C=C(C)C=CC=C(C)C=Cc1c(C)cc(OC)c(C)c1C
a: > 4000 mg/kg

###

Test name: in vivo
Condition description: mouse, ip, After 20 days, mice, intraperitoneal, in rape-oil
Measured LD50 at 480 h accompanies every entry in the list below.
Write down the numeric answer in mg/kg and omit the unit.

* COc1cc(C)c(C=CC(C)=CC=CC(C)=CC(=O)O)c(C)c1C | 700

Alright, here's another molecule for you.
q: Please look at this molecule and report its LD50 at 480 h: CCOC(=O)C=C(C)C=CC=C(C)C=Cc1c(C)cc(OC)c(C)c1C
a: 1000

Where these numbers come from: patent US4215215A
